Data credit: ChEMBL document CHEMBL1961873

study_target: Mitogen-activated protein kinase 3 (Homo sapiens) (UniProt P27361);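 note: each value is a mean inhibition figure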
Sequence (P27361 whole entry): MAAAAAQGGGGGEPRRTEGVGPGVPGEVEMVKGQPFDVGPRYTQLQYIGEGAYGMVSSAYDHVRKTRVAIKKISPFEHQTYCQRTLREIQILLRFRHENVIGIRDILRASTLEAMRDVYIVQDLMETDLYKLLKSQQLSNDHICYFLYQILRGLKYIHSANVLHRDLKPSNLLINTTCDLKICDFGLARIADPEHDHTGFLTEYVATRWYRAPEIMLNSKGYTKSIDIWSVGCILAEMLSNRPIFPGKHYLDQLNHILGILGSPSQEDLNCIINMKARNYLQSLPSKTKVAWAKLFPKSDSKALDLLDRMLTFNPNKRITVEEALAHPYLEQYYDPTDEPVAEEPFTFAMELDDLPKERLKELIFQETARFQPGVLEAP
assay_setup: at 0.1 µM
# inhibition >= 5% gives satisfied, anything below gives not satisfied

[
  {
    "query_smiles": "Cc1ccc(C(=O)NC2CCC2)cc1-c1ccc(C(=O)NCC2CC2)cc1",
    "label_class": "not satisfied"
  },
  {
    "query_smiles": "CS(=O)(=O)CCNCc1ccc(-c2ccc3ncnc(Nc4ccc(OCc5ccccc5)c(Br)c4)c3c2)o1",
    "label_class": "satisfied"
  }
]

API: above_or_equal(metric=inhibition, cutoff=5%) for item `O=C(Nc1n[nH]c2cc(-c3ccccc3)ccc12)C1CC1`
not satisfied

Same question, `CCc1nccc2c1nc(-c1nonc1N)n2CC` this time
not satisfied

How about `CS(=O)(=O)CCNCc1cc(-c2cc3c(Nc4ccc(OCc5cccc(F)c5)c(Cl)c4)ncnc3s2)cs1` ?
not satisfied

* * *

study_target: Tyrosine-protein kinase JAK3 (Homo sapiens)
assay_setup: at 0.1 µM
measured_parameter: inhibition (%)
Kindly provide the numeric value in % only, without the unit symbol.

Worked set:
[
  {
    "query_smiles": "Fc1ccc(-c2ncn(C3CCNCC3)c2-c2ccnc(Oc3ccc4c(c3)OCO4)n2)cc1",
    "measured_result": -2.3
  },
  {
    "query_smiles": "Fc1ccc(-c2c(-c3ccncc3)nc3n2CCS3)cc1",
    "measured_result": -3.51
  }
]

Report inhibition for `COc1ccc(-c2ccc3c(NC(=O)C4CC4)n[nH]c3n2)cc1` tested on Tyrosine-protein kinase JAK3 (Homo sapiens).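 Note: values reported are mean percent inhibition of JAK3.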
-1

* * *

study_target: Death-associated protein kinase 1 (Homo sapiens) (UniProt P53355);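 note: reported figure is the mean inhibition of DAPK1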
Sequence (P53355 whole entry, looked up): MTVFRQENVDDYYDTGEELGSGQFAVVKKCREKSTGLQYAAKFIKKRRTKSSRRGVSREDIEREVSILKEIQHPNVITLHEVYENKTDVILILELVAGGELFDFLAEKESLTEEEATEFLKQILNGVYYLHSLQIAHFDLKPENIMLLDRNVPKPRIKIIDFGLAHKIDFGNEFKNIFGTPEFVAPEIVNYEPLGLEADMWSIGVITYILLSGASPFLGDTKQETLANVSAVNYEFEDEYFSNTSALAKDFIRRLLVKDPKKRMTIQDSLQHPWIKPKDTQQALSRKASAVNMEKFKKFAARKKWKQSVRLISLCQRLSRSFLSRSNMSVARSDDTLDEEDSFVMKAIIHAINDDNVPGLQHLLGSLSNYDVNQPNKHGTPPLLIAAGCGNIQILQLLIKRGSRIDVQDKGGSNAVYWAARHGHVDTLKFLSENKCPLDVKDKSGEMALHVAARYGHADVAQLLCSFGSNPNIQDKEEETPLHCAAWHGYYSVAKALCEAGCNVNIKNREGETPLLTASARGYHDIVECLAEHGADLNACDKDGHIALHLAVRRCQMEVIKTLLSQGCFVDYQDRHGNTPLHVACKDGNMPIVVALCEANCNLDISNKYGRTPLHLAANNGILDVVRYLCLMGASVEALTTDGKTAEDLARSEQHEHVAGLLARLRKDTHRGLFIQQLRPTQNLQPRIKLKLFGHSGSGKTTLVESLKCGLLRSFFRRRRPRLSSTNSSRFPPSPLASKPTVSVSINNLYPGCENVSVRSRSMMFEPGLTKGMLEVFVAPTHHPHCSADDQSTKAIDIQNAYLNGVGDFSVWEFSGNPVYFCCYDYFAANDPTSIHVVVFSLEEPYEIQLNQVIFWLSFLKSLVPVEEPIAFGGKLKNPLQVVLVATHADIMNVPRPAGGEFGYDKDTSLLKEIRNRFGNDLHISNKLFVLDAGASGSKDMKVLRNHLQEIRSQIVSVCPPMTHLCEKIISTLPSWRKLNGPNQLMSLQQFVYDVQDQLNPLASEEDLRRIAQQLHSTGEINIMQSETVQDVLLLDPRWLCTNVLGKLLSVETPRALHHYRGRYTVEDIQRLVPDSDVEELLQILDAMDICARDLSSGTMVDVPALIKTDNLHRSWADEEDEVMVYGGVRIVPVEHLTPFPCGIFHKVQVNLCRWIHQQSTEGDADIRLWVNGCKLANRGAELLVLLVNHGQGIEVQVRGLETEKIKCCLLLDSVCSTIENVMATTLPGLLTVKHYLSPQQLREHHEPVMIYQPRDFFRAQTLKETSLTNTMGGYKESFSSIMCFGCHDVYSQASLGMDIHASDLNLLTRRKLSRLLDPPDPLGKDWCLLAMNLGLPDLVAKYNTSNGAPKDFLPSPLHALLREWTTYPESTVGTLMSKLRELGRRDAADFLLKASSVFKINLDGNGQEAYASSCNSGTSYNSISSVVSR
assay_setup: at 0.1 µM
measured_parameter: inhibition (%)
Your answer is read as %, so omit the unit and give the number.

[
  {
    "query_smiles": "COc1cc(Nc2ncc3c(C)nc(-c4cccc(C(F)(F)F)c4)n3n2)cc(OC)c1OC",
    "inhibition / %": -0.52
  }
]

Which inhibition value belongs to `CN1CCN(CCCNc2nc3ccc(Oc4ccc(NC(=O)Nc5cc(C(F)(F)F)ccc5F)cc4)cc3[nH]2)CC1` ?
-0.32

Could you do the same for `COc1cc2ncn(-c3cc(OCc4cccs4)c(C(N)=O)s3)c2cc1OC` , please?
0.06

* * *

study_target: SRSF protein kinase 1 (Homo sapiens) (UniProt Q96SB4);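 note: reported values are mean percent inhibition of SRPK1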
Sequence (Q96SB4 whole entry): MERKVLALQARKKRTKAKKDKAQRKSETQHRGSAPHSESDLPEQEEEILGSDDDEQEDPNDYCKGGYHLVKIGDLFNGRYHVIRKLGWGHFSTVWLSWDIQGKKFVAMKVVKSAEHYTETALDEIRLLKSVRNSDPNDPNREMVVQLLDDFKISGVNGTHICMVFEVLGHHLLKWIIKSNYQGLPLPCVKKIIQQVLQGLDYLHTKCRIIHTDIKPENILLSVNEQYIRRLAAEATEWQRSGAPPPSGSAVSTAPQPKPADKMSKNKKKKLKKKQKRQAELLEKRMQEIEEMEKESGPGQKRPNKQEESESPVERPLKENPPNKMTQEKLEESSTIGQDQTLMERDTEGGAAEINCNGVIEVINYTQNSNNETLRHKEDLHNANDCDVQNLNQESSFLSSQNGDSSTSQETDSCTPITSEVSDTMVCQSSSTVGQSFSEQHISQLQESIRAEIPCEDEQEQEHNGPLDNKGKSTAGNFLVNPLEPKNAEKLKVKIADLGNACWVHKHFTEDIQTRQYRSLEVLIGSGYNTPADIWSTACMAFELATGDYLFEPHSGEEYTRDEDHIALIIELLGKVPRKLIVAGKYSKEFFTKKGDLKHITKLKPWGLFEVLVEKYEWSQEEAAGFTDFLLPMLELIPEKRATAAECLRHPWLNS
assay_setup: at 1 µM
measured_parameter: inhibition (%)
Could you give me the number in %? Just the number is fine.

Answered examples (5):
[
  {
    "query_smiles": "CCc1cccc(CC)c1/C=C/c1cncc(C(=O)NC)c1",
    "uom": "%",
    "inhibition": -2.98
  },
  {
    "query_smiles": "Fc1ccc(-c2ncn(C3CCNCC3)c2-c2ccnc(Oc3ccc4c(c3)OCO4)n2)cc1",
    "uom": "%",
    "inhibition": 0.51
  },
  {
    "query_smiles": "C[C@@H](Oc1cc(-n2cnc3ccc(OC4CCN(C)CC4)cc32)sc1C(N)=O)c1ccccc1Cl",
    "uom": "%",
    "inhibition": -1.4
  },
  {
    "query_smiles": "O=C(Nc1n[nH]c2cc(-c3ccccc3)ccc12)C1CC1",
    "uom": "%",
    "inhibition": -1.41
  },
  {
    "query_smiles": "COC(=O)Nc1nc2ccc(Sc3ccc(NC(=O)Nc4cc(C(F)(F)F)ccc4F)cc3)cc2[nH]1",
    "uom": "%",
    "inhibition": -0.09
  }
]

Okay, next one:
Given the entry `Fc1ccc(-c2ncn(CCCN3CCOCC3)c2-c2ccncc2)cc1` , report its measured inhibition.
-5.35

* * *

# inhibition listing for each entry below
study_target: Mitogen-activated protein kinase kinase kinase kinase 4 (Homo sapiens)
assay_setup: at 0.1 µM
Description: GSK_PKIS: MAP4K4 mean inhibition at 0.1 uM [Nanosyn]
Field format: number, assumed %, no unit text.

Below, 8 compounds whose answers are already recorded.
[
  {
    "compound": "COc1ccc(C2=C(N3CCc4ccccc43)C(=O)NC2=O)cc1",
    "inhibition / %": 6.97
  },
  {
    "compound": "NS(=O)(=O)c1ccc(N/N=C2\\C(=O)Nc3ccc(-c4cnco4)cc32)cc1",
    "inhibition / %": 65.1
  },
  {
    "compound": "NC(=O)c1cc(-c2ccc(F)cc2)cc(-c2ccncc2)c1N",
    "inhibition / %": 4.49
  },
  {
    "compound": "CN(C)CCCNc1nccc(-c2c(-c3ccc(F)cc3)nn3cc(C(F)(F)F)ccc23)n1",
    "inhibition / %": 5.21
  },
  {
    "compound": "Cc1ccc(NC(=O)c2ccoc2)cc1-c1ccc(C(=O)NCC2CC2)cc1",
    "inhibition / %": 0.77
  },
  {
    "compound": "N#Cc1ccc(Oc2nccc(-c3c(-c4ccc(F)cc4)ncn3C3CCNCC3)n2)cc1",
    "inhibition / %": 3.8
  },
  {
    "compound": "COc1ccc2cc(-c3c(-c4ccncc4)nc(-c4ccc([S+](C)[O-])cc4C)n3C)ccc2c1 (stereo unspecified)",
    "inhibition / %": 1.21
  },
  {
    "compound": "CN(C)CCOc1ccc(-c2cc(-c3ccc4c(c3)CCC4=NO)c(-c3ccncc3)o2)cc1",
    "inhibition / %": 0.91
  }
]

Requested field: inhibition. Item: `CCc1nccc2c1nc(-c1nonc1N)n2CC`
2.56

Try this compound next: `CCc1cccc(CC)c1/C=C/c1cncc(C(=O)NC)c1`
1.73

Entry to check: `COc1cc(C)c(N(C)C(=O)CN(C)C)cc1Nc1nc(Nc2cccc(F)c2C(N)=O)c2cc[nH]c2n1`
0.4

* * *

study_target: Serine/threonine-protein kinase pim-2 (Homo sapiens) (UniProt Q9P1W9);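 note: reported value is the mean percent inhibition of PIM2, measured in the GSK PKIS kinase inhibitor set screen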
Sequence (Q9P1W9 whole entry, looked up): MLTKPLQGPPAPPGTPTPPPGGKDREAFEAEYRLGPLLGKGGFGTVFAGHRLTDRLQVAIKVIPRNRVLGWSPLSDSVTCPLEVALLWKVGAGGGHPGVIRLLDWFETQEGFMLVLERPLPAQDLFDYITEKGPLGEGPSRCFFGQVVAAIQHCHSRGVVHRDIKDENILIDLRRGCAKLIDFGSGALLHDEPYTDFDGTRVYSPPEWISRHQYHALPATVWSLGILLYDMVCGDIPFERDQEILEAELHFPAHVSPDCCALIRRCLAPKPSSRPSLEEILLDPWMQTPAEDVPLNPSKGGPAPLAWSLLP
assay_setup: at 0.1 µM
measured_parameter: inhibition (%)
Kindly provide the numeric value in % only, without the unit symbol.

Check out these entries, answers already filled in.
[
  {
    "query_smiles": "CNC(=O)c1cncc(/C=C/c2c(C)cccc2C)c1",
    "study_target": "Serine/threonine-protein kinase pim-2 (Homo sapiens) (UniProt Q9P1W9)",
    "uom": "%",
    "measured_result": -4.04
  },
  {
    "query_smiles": "NS(=O)(=O)c1ccc(N/N=C2\\C(=O)Nc3ccc(C(=O)NCCCn4ccnc4)cc32)cc1",
    "study_target": "Serine/threonine-protein kinase pim-2 (Homo sapiens) (UniProt Q9P1W9)",
    "uom": "%",
    "measured_result": 0.82
  },
  {
    "query_smiles": "Clc1ccc(CNc2nccc(-c3cnn4ncccc34)n2)cc1",
    "study_target": "Serine/threonine-protein kinase pim-2 (Homo sapiens) (UniProt Q9P1W9)",
    "uom": "%",
    "measured_result": -0.52
  },
  {
    "query_smiles": "CCc1nccc2c1nc(-c1nonc1N)n2CC",
    "study_target": "Serine/threonine-protein kinase pim-2 (Homo sapiens) (UniProt Q9P1W9)",
    "uom": "%",
    "measured_result": 0.4
  },
  {
    "query_smiles": "Cc1ccc(NC(=O)c2ccoc2)cc1-c1ccc(C(=O)NCC2CC2)cc1",
    "study_target": "Serine/threonine-protein kinase pim-2 (Homo sapiens) (UniProt Q9P1W9)",
    "uom": "%",
    "measured_result": -0.3
  }
]

Bench note: what inhibition did `CCS(=O)(=O)c1ccc(OC)c(Nc2ncc(-c3cccc(-c4ccccc4F)c3)o2)c1` show?
0.1

Also `COc1cc(C)c(N(C)C(=O)CN(C)C)cc1Nc1nc(Nc2cccc(F)c2C(N)=O)c2cc[nH]c2n1` , if possible.
-3.42

Follow-up item: `Cc1nnc(-c2ccc(C)c(-c3ccc(C(=O)NCc4ccc(Cl)cc4)cc3)c2)o1`
-3.59

And then `COc1ccc(C2=C(N3CCc4ccccc43)C(=O)NC2=O)cc1` , what is it?
0.18

Again, but for `O=C(Nc1n[nH]c2cc(-c3cc(F)ccc3F)ccc12)C1CC1`
0.05

Please do the same for `COc1ccc(-c2ccc3c(NC(=O)C4CC4)n[nH]c3n2)cc1` as well.
-0.37

Also, `CN(C)CCOc1ccc(-c2cc(-c3ccc4c(c3)CCC4=NO)c(-c3ccncc3)o2)cc1` please.
-0.09

Do the same for `Fc1ccc(-c2ncn(C3CCNCC3)c2-c2ccnc(Oc3ccc(Oc4ccccc4)cc3)n2)cc1` please
-0.33

Another compound: `C#Cc1cccc(Nc2ncnc3ccc(OCCCCNCCS(C)(=O)=O)cc23)c1`
-2.91

What would you report for `C[C@@H](Oc1cc(-n2cnc3ccc(OCC4CCN(C)CC4)cc32)sc1C(N)=O)c1ccccc1Cl` ?
0.64

For `CN(C)c1ccc2c(c1)/C(=C/Nc1ccc(S(N)(=O)=O)cc1)C(=O)N2` then?
0.23

Record: `Cc1ccc(C(=O)NC2CCC2)cc1-c1ccc(C(=O)NCC2CC2)cc1`
-0.51

// query: `O=C(Nc1ccc(Oc2ccc3[nH]c(NC(=O)c4ccccc4)nc3c2)cc1)Nc1cc(C(F)(F)F)ccc1F`
-0.34

Thanks! And `CCS(=O)(=O)c1ccc(OC)c(Nc2ncc(-c3ccccc3Cl)o2)c1` ?
-0.56
